- System Name: human FXR (NR1H4) (Homo sapiens, UniProt Q96RI1)
- Sequence (Q96RI1 whole entry, the tested form may be a part): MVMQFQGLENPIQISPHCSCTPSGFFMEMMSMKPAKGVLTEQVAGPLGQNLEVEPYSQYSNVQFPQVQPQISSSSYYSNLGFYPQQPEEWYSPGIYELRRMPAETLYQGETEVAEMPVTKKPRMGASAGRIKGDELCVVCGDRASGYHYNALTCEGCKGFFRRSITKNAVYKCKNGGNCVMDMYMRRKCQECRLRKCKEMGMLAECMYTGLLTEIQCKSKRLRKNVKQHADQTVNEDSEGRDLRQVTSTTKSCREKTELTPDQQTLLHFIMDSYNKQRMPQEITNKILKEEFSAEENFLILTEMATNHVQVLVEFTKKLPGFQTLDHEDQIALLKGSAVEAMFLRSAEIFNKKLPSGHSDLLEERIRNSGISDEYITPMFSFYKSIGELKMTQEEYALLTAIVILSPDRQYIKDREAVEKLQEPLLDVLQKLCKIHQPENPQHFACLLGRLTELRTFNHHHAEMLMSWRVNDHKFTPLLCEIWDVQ
- Assay Method Text: Human FXR (NR1H4) Assay (Gal4 promoter driven luciferase reporter, Indigo Bioscience kit IB00601)
- Experimental Parameters: FXR agonistic potency; CHO reporter cells expressing human NR1H4; 22 hours incubation; luciferase readout
Parameter EC50: see the listing below.

- Structure Smiles: "CC[C@H]1[C@@H](O)[C@@H]2[C@H](CC[C@]3(C)[C@@H]([C@H](C)COC(=O)NS(=O)(=O)c4ccc(OC5CCCC5)cc4)CC[C@@H]23)[C@@]2(C)CC[C@@H](O)C[C@@H]12"
  Property Label: "EC50"
  Test Result: "< 1 nM"
- Structure Smiles: "CC[C@H]1[C@@H](O)[C@@H]2[C@H](CC[C@]3(C)[C@@H]([C@H](C)COC(=O)NS(=O)(=O)c4cc(C)c(OC(C)C)c(C)c4)CC[C@@H]23)[C@@]2(C)CC[C@@H](O)C[C@@H]12"
  Property Label: "EC50"
  Test Result: "< 1 nM"
- Structure Smiles: "CC[C@H]1[C@@H](O)[C@@H]2[C@H](CC[C@]3(C)[C@@H]([C@H](C)COC(=O)NS(=O)(=O)c4ccc(O)cc4)CC[C@@H]23)[C@@]2(C)CC[C@@H](O)C[C@@H]12"
  Property Label: "EC50"
  Test Result: "> 100 nM"

Problem: // returns reported EC50 for input CC[C@H]1[C@@H](O)[C@@H]2[C@H](CC[C@]3(C)[C@@H]([C@H](C)COC(=O)NS(=O)(=O)c4ccc(OC5CCCCC5)cc4)CC[C@@H]23)[C@@]2(C)CC[C@@H](O)C[C@@H]12
Solution: 1 to 10 nM

Problem: Bench note: what EC50 did CC[C@H]1[C@@H](O)[C@@H]2[C@H](CC[C@]3(C)[C@@H]([C@H](C)COC(=O)NS(=O)(=O)c4ccc5c(c4)CCC(C)(C)O5)CC[C@@H]23)[C@@]2(C)CC[C@H](O)C[C@@H]12 show?
Solution: < 1 nM
